Assay: folding stability dG unfold from chymotrypsin proteolysis; higher = more stable
property-label: folding stability dG unfold

For this sequence ( SAGGSAGGSIRRDENGNFRVRIKVRFPGNGRKRTIEIPFDNATLEEIRKQAIDHGIRPIEIIPSAGGSAGGS [r12_792_TrROS] ), measured folding stability dG unfold is 1.35 kcal/mol

folding stability dG unfold in this record for SAGGSAGGTAEQIREIVEQLFRKRGMEPKKIEIKRVERNGDKVTIEVEWRWDNGRKRPRNIQIPSAGGSAGG [r6_841_TrROS] : 1.66 kcal/mol

Per the record, SAGGSAGGSSPPLEILDPVSATLPDGGTLTVAKAAGSYYLVTTTTYDPATGTATSTTTVVPLESAGGSAGGS [r20_15_JUSTAS] has folding stability dG unfold of 0.827 kcal/mol

The sequence listed as SAGGSAMKITITVEKKEDGTYRVTIEIDGKKIEIEMSVEDLKKKLEELAKELFPDKPIKVEVKPVPSAGGSA [r15_925_TrROS_Hall] shows folding stability dG unfold equal to 4.13 kcal/mol

Field folding stability dG unfold (entry SAWKIEIKEVKRNPDGWYEITITIPFPGDPNMPVDELADEILQEFGIKDVTVEPNPDNGWIEITIRIPRSAG [r14_228_TrROS] ) reads 2.53 kcal/mol

Lab note: measured folding stability dG unfold of NKRIKIFIGGDDPSMAEQIQQWLQDNGYNVEVHVFTSPEDMKKAREWAEQNDIVIVIQVPPPPPKDPGDNNS [r1_497_TrROS] was 3.49 kcal/mol

----------
I'd appreciate it if you could supply folding stability dG unfold values for the items below.
Experiment: folding stability dG unfold (combined trypsin and chymotrypsin); higher = more stable
Answer with a number only, understood to be in kcal/mol.

folding stability dG unfold in this record for SAGGSAGGSAGGKMYLIKVKVDGEEKLIKVKSLEEAKKLLEEKGYKIESVEIFEVEEEEESAGGSAGGSAGG [r7_726_TrROS_Hall] : 4.09

For reference, reported folding stability dG unfold for SPKIHIFIKGSIEEAVDFIRKFFPGLPIHVFDDPEQAEERAKNGDIVIAIGDEEYANRYAKKYNVPVIYISA [r9_380_TrROS] stands at 3.12

Recorded folding stability dG unfold (sequence SAGGSAGGSAGMKIEYEHDPNRNWYTVKIDFPNGPPKIPIQVPHDDMPPNDLRDWAKELFSAGGSAGGSAGG [r11_557_TrROS] ): 0.475

GET /value?item= SADVVVIHARSPEELRAALEEARKEGKTVRIVVSREELDELKALLPEDVKIEVLKNENGEELVVIEVKVSAG [r14_127_TrROS_Hall] &field=folding stability dG unfold returns 4.15

Input SKTIVIELENIEDMTKEELKNLIKELAEKGETVKVTILNKDGKEVKTIEIKPGEIVPFPKGSKVLIKIEKSA [r9_264_TrROS_Hall] . Output folding stability dG unfold: 1.37

GET /value?item= SAGGGMKISTVETKPESDGSIVITIKVYDANGNEIKTYTIPLKGLSNVTITIPVANNPIEVSIPATLSSAGG [r13_427_JUSTAS] &field=folding stability dG unfold returns 1.84

Recorded folding stability dG unfold (sequence SAGGKKIEIEIVFKEGEKAPSAEEIAKKLLEEIPNIKITSIEIVDVEYDEETGEKYVVVKITIEVEPPSAGG [r13_10_TrROS_Hall] ): 3.17

folding stability dG unfold measured on MTLLIPLPPAFPDLTPEQVLDLLRELFLSPDEEATAEENPETGSVTVTVRRGDEEYVFTFYPDGYLVLEPGS [r1_131_TrMRF] = 2.83

So for SAGGSAGGSAGGEVITVKRPDGTPFDVTAVLSEDPVVPLLTVEATDDGPVVTLDVPASLLSAGGSAGGSAGG [r7_236_JUSTAS] , the logged folding stability dG unfold turned out to be -0.172

Note to self: folding stability dG unfold recorded for SAKMYLVIIEIKKDGKTYKLIIIIPEEDENLTEEEILEKIRELAEKLNLEIEKIEVIPLEEAKKLLEELSAG [r14_953_TrROS_Hall] was 5.23

Every entry's value here was drawn from the supplement of paper PMC12764529.
